# System: Vero E6
# Method description: cell viability relative to DMSO; higher = less toxic
# Settings: 72 h; 1 nM
Value type: cell viability
Write the quantity with the unit trailing the number.

Some entries whose results are on file:
Compound | System name | cell viability
COc1cc2c(Oc3ccc(NC(=O)C4(C(=O)Nc5ccc(F)cc5)CC4)cc3F)ccnc2cc1OCCCN1CCOCC1 | Vero E6 | 102%
COc1ccccc1Oc1c(NS(=O)(=O)c2ccc(C)cn2)nc(-c2ccncc2)nc1OC | Vero E6 | 102%
CCC(Cc1c(I)cc(I)c(N)c1I)C(=O)O (centres undefined) | Vero E6 | 109%
CCN[C@H]1CN(CCCOC)S(=O)(=O)c2sc(S(N)(=O)=O)cc21 [brinzolamide] | Vero E6 | 94.4%

[in] // cell viability lookup, key: CC(=O)O[C@]1(C(C)=O)CC[C@H]2[C@@H]3C=CC4=CC(=O)CC[C@]4(C)[C@H]3CC[C@@]21C [6,7-dehydro-17-acetoxy-progesterone]
[out] 106%

[in] // cell viability lookup, key: CN(C)CCCSC(=N)N
[out] 99.9%

[in] // cell viability lookup, key: CC(C)c1ccccc1S(=O)(=O)c1cc(N)c2ncccc2c1[N+](=O)[O-]
[out] 98%

[in] // cell viability lookup, key: CCC(=O)O[C@@H]1CC(=O)O[C@H](C)C/C=C/C=C/[C@H](OC(C)=O)[C@H](C)C[C@H](CC=O)[C@H](O[C@@H]2O[C@H](C)[C@@H](O[C@H]3C[C@@](C)(OC(C)=O)[C@@H](OC(=O)CC)[C@H](C)O3)[C@H](N(C)C)[C@H]2O)[C@H]1OC
[out] 97.5%

[in] // cell viability lookup, key: COc1cc2ncn(-c3cc(OCc4ccccc4C(F)(F)F)c(C(N)=O)s3)c2cc1OC
[out] 104%

[in] // cell viability lookup, key: CC(C)=CCC/C(C)=C/CC/C(C)=C/CC[C@]1(C)CCc2cc(O)cc(C)c2O1
[out] 107%

[in] // cell viability lookup, key: C[C@H](NC(=O)[C@@H](Cc1c[nH]c2ccccc12)NC(=O)[C@@H](N)Cc1c[nH]cn1)C(=O)N[C@@H](Cc1c[nH]c2ccccc12)C(=O)N[C@H](Cc1ccccc1)C(=O)N[C@@H](CCCCN)C(N)=O
[out] 108%
